Test: Pharmacokinetic study of oral CVM-1118 in mouse (plasma, LC-MS/MS)
Assay type: in vivo, male CD-1 mice
Settings: mouse; analyte in plasma after single oral CVM-1118 30 mg/kg in 9% NaHCO3, fasted male CD-1 mice
Readout kind: Tmax (min)
Only the number, expressed in min, is required.

Ask: State the recorded Tmax for this entry: COc1ccc2[nH]c(-c3cccc(F)c3)cc(=O)c2c1O
Result: 15

Ask: State the recorded Tmax for this entry: COc1ccc2[nH]c(-c3cccc(F)c3)cc(=O)c2c1OP(=O)(O)O
Result: 15

###

Tested on: DU-145
Assay: Cytotoxicity assay (Alamar Blue, 72 h)
Type: cell-based
Settings: Homo sapiens, DU-145 (Prostate)
Readout kind: IC50 (nM)
Only the number, expressed in nM, is required.

Ask: State the recorded IC50 for this entry: COc1ccc2[nH]c(-c3cccc(F)c3)cc(=O)c2c1OP(=O)(O)O
Result: 21

Ask: State the recorded IC50 for this entry: COc1ccc2[nH]c(-c3cccc(F)c3)cc(=O)c2c1O
Result: 27

###

Molecular target: Renin receptor (ATP6IP2) (Homo sapiens)
Sequence (O75787 17-350): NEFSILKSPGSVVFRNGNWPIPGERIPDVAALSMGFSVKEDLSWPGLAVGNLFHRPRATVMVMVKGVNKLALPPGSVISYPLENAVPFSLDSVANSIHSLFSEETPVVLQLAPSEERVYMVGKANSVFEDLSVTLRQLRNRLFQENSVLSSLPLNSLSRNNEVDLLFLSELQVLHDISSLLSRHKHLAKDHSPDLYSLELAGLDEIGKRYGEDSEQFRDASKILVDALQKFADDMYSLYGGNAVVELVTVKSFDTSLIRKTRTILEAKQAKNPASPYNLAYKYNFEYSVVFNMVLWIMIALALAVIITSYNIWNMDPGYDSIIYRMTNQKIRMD
Assay: Surface plasmon resonance (Biacore)
Type: binding
Conditions: ATP6IP2, SPR; read-out: KD (kd/ka)
Readout kind: Kd (nM)
Only the number, expressed in nM, is required.

Ask: State the recorded Kd for this entry: COc1ccc2[nH]c(-c3cccc(F)c3)cc(=O)c2c1O
Result: 173

###

Exercise: state measured IC50 for each of the compounds provided.
System: Mia PaCa-2
Assay: Cytotoxicity assay (Alamar Blue, 72 h)
Type: cell-based
Conditions: Homo sapiens, Mia PaCa-2 (Pancreatic)

Ask: Recorded IC50 for COc1ccc2[nH]c(-c3cccc(F)c3)cc(=O)c2c1O [CVM-1125] with Mia PaCa-2, please?
Result: 7 nM

Ask: Recorded IC50 for COc1ccc2[nH]c(-c3cccc(F)c3)cc(=O)c2c1OP(=O)(O)O [CVM-1118] with Mia PaCa-2, please?
Result: 11 nM

###

Readout kind: Kd

Ask: Recorded Kd for COc1ccc2[nH]c(-c3cccc(F)c3)cc(=O)c2c1O with Integrin beta-2 (CD18) (Homo sapiens), please?
Result: 748 nM

###

System: MDA-MB-435
Assay: Cytotoxicity assay (Alamar Blue, 72 h)
Assay type: cell-based
Details: Homo sapiens, MDA-MB-435 (Melanoma)
Readout kind: IC50 (nM)
Only the number, expressed in nM, is required.

Ask: State the recorded IC50 for this entry: COc1ccc2[nH]c(-c3cccc(F)c3)cc(=O)c2c1O
Result: 5

Ask: State the recorded IC50 for this entry: COc1ccc2[nH]c(-c3cccc(F)c3)cc(=O)c2c1OP(=O)(O)O
Result: 4

###

Test: Pharmacokinetic study of oral CVM-1118 in mouse (plasma, LC-MS/MS)
Type: in vivo, male CD-1 mice
Conditions: mouse; analyte in plasma after single oral CVM-1118 30 mg/kg in 9% NaHCO3, fasted male CD-1 mice
Exercise: state measured AUC(0-t) for each of the compounds provided.
Only the number, expressed in µg·h/mL, is required.

Ask: State the recorded AUC(0-t) for this entry: COc1ccc2[nH]c(-c3cccc(F)c3)cc(=O)c2c1O
Result: 0.279

Ask: State the recorded AUC(0-t) for this entry: COc1ccc2[nH]c(-c3cccc(F)c3)cc(=O)c2c1OP(=O)(O)O
Result: 0.007

Ref: paper PMC10283505
